PROCEDURE TEXT: yeast display, Sf9 membrane polyspecificity reagent, FACS + sequencing; frameworks hold sequencing errors
MEASUREMENT LABEL: polyreactivity (PSR sort gate)

Example sequences with recorded polyreactivity (PSR sort gate):
RESIDUE STRING	polyreactivity (PSR sort gate)
QLQLVESGGGLVQAGGSLRLSCAASGRIFGVYVMGLYRQAPGKERELVAAISWSGSHTYYADSVKGRFTISRDNAKNTVYLQMNSLKPEDTAVYYCNADSYPDYTGPGLDWYDYWGQGTQVTVSS	low polyreactivity
HVQLVESGGGLVQAGGSLRLSCAASGFIFVFYDMGWYRPAPGKERELVAGITRNDGSTYYADSVKGRFKISRDNAKNTVYLQMNSLKPEDTAVYYCAADRVRRNDKLAYDYWGQGTQVTVSS	low polyreactivity
QVQLVESGGGLVQAGGSLRLSCAASGNIFYINTMGWYRQEPGKERELVDAIDASDGSTYYADSVKGRFTISRDNAKNTVYLQMNSLKPEDTAVYYFASRRGYDSVYYFYTLWYYYWGQGTQVTVSS	low polyreactivity
QVQLVESGGGLVQAGGSLRLICAASGSIFYRYTMGWYRQAPGKERELVAAISSRGGSTYYADSVKGRFTISRDNAKNTVYLQMNSLKPEYTAVYYCAARFSYWAPSKGYGYWGQGTQVTVSS	high polyreactivity

*Q* Tell us which polyreactivity (PSR sort gate) value is on record for "QVQLVESGAGFFQAGGSLRVSCAASGRTFPVYAMGWYRHAPGNERELVARINSGGRTTYADSVKGRFTISRDNAKNTVYLQMISLNPEDTAVYYCNARSWYYVWRKGYRHGDYWGQGTQVTVSS"
*A* high polyreactivity

----------
PROCEDURE TEXT: yeast display, Sf9 membrane polyspecificity reagent, FACS + sequencing; frameworks hold sequencing errors
MEASUREMENT LABEL: polyreactivity (PSR sort gate)

RESIDUE STRING	OBS VALUE
QVQLVESGGGLVQAGGSLRLSCSASGSIFRYNAMGWYRQAPGKERELVAGITSGGSTNYADSVKGRFTISRDNAKNTVYLQMNSLKPEDTAVYYCATGTRSYYRWWRLMNYWGQGTQVTVSS	high polyreactivity
QVQLVESGGGLVQAGGSLRLSCAASGSTFYANAMGWYRQAPGKERELVAAITRSGAGTYYADSVKGRFTFSRDNAKNTVYLQMNSLKPEDTAVYYCATRYGQWGQGTQVTVSS	high polyreactivity

----------
PROCEDURE TEXT: yeast display, Sf9 membrane polyspecificity reagent, FACS + sequencing; frameworks hold sequencing errors
MEASUREMENT LABEL: polyreactivity (PSR sort gate)

RESIDUE STRING	OBS VALUE
QVQLVESGGGLVQAGGSLRLSCAASGSIFTRYAMGWYRQAPGKERELVADIRTRGGGTYYADSVKGRFTISRDTAKNTVYLQMNSLKPEDTAVYYCAKLWYHVYGSSPYGYWGQGTQVTVSS	high polyreactivity
QVQLVESGGGLVQAGGSLRLSCAASGLIFRHYVMGWYRQAPGKETELVAAITSRGGTTYYADSVKGRFTISRDNAKNTVYIQMNSLKPEDTAVYYCNAVDIYPTRYEYDYWGQGTQVTVSS	high polyreactivity

----------
PROCEDURE TEXT: yeast display, Sf9 membrane polyspecificity reagent, FACS + sequencing; frameworks hold sequencing errors
MEASUREMENT LABEL: polyreactivity (PSR sort gate)

RESIDUE STRING	OBS VALUE
QVQLVESGGGLVQAGGSLRLSCAASGSIFSGYAMGWYRQAPGKERELVAAITGGGSTNYADSVKGRFTISRDNAKNTVYLQMTSLKPEDTAVYYCAAAPVSLPDYGYWGQGTQVTVSS	low polyreactivity
QVQLVESGGGLVQAGGSLRLSCAASGFTFYSYAMGWYRQAPGKERELVAAISWSGTRTYYADSVKGRFTISRDNAKNTVYLQMNSLKPVDTAVYDCAADTRRWARGYDYWGQGTQVTVSS	high polyreactivity
QVQLVESGGGLVQAGGSLRLSCAASGRILELNAMGWYRQAPGKERELVAGISNSGDTTYYADSVKGRFTISRDNAKNTVYLQMNSLKPEDTAVYYCNADGVVTWYDYWGQGTQVTVSS	low polyreactivity
QVQLVESGGGLVQAGGSLRLSCAASGSTFYSNVMGWYTQATGKEREFVAGISGSGGSTYYADSVKGRFTISRDNAKNTVYLQMNSLKPDDTAVYYCAKYRYSRYFRYDYWGQGTQVTVSS	high polyreactivity
QVQLEESGGGLVQAGGSLRLSCAASGRIFPYYPMGWYRQAPGKETELVATISGGGSTYYADSVKGRFTISRDNAKNTFYLQMNSLKPEDTAVYYCSARSWLRWASTPQWYRYEYWGQGTQVTVSS	low polyreactivity

*Q* Please list polyreactivity (PSR sort gate) recorded for the sequence "QVQLVESGGGLVQAGGSLRLSCAASGFIFRAYAKRWYRPAPGKERELFAALTKRSGTTYSADSVKRRFTISRDNAKNTVYVQMNSLKPEDTAVYFCAAKTLYNSGTQDRAMGYWGQGTQVTVSS"
*A* high polyreactivity

*Q* Note down polyreactivity (PSR sort gate) recorded for "QVQLVESGGGLVQAGGSLRLSCAASGFIFAYYAMGWYRQAAGKERELVAAITSDGSTYYADSVKGRFTISRDNAKNTVYLQMNSLKPEDTAVYYCNTYWVLRPGYNYWGQGTQVTVSS"
*A* high polyreactivity

*Q* Indicate its recorded polyreactivity (PSR sort gate); the sequence in question is "QVQLVESGGGLVEAGGSLRLSCAASGYIFKSYVMGWYRQAPGTERELVAAITWSGGSTYYADSVNGRFTISRDNAKNTVYLQMNSLNPEDTAVYYCAAYPRRYRTTYDYWGQGTQVTVSS"
*A* high polyreactivity

*Q* Give the measured polyreactivity (PSR sort gate) for "QVQLVESGGGLVQAGGSLRLSSAASGSIFRYNAMGWYRPAPGKERELVAAITSSGGSTYYADSVKGRFTISRDNAKNTVYLQMNSLKPEDTAVYYCAAVRRRVHYPYDYWGQGTQVTVSS"
*A* high polyreactivity

*Q* Input "QVQLVESGGGLVQAGGSLRLSFAASGQTFRWNAMGWYRQAPGKERELFAAISRGDRTNYADSVKGRFTISRDNAKNTVYLQMNSLNPEDTAVYYCAKTYQTNYYNGTWGVTSYGYWGQGTQVTVSS" , output reported polyreactivity (PSR sort gate).
*A* high polyreactivity

*Q* Give recorded polyreactivity (PSR sort gate). "QVQLVESGGGLVQAGGRLRLSCADSGRIFLYYAKGWYRQAPGKEPELVAAISGGGGRTYYADSVKGRFTISRDNAKNTVYLQMNSLKPEDTAVYYWAAGVYTGQHEFDYWGQGTQVTVSS"
*A* low polyreactivity
